- Assay Remarks: Pharmacokinetic studies in C57BL/6 mice
- Type: in vivo
- Experimental Setup: male, C57BL/6, mouse, brain, intraperitoneal
Quick reference for Kp among some compounds
Number only, no unit.

Structure As Smiles | Kp
CC(=O)NC1CCN(C(=O)Nc2cc(-c3cccs3)ccc2N)CC1 | 0.01

Ask | // lookup Kp for "Nc1ccc(-c2ccncc2)cc1NC(=O)N1CCCC1"
Reply | 0.26
